test: Cytotoxicity against human MCF7 cells assessed as cell survival at 100 uM after 72 hrs incubation by MTT assay; type: cell-based; settings: read-out: Survival

- input smiles: "COc1ccc(C(=O)Nc2c(O)c3ccccc3n(C)c2=O)cc1"
  endpoint unit: "%"
  viability at 72 h, 100 µM: 81
- input smiles: "Cn1c(=O)c(NC(=O)CCCCCCCCCCOn2nnc3ccccc32)c(O)c2ccccc21"
  endpoint unit: "%"
  viability at 72 h, 100 µM: 72
- input smiles: "Cc1ccc(S(=O)(=O)Oc2c(N)c(=O)n(C)c3ccccc23)cc1"
  endpoint unit: "%"
  viability at 72 h, 100 µM: 24
- input smiles: "COc1cc(C(=O)Nc2c(OS(=O)(=O)c3ccc(C)cc3)c3ccccc3n(C)c2=O)cc(OC)c1OC"
  endpoint unit: "%"
  viability at 72 h, 100 µM: 84
- input smiles: "COc1cc(C(=O)Nc2c(OS(=O)(=O)c3cccs3)c3ccccc3n(C)c2=O)cc(OC)c1OC"
  endpoint unit: "%"
  viability at 72 h, 100 µM: 77
- input smiles: "COc1ccc(C(=O)Nc2c(OS(=O)(=O)c3ccc(C)cc3)c3ccccc3n(C)c2=O)cc1"
  endpoint unit: "%"
  viability at 72 h, 100 µM: 82
- input smiles: "Cc1ccc(S(=O)(=O)Oc2c(NC(=O)c3ccc4c(c3)C=CC(C)(C)O4)c(=O)n(C)c3ccccc23)cc1"
  endpoint unit: "%"
  viability at 72 h, 100 µM: 37
- input smiles: "Cc1ccc(S(=O)(=O)Oc2c(NC(=O)c3cc4ccccc4[nH]3)c(=O)n(C)c3ccccc23)cc1"
  endpoint unit: "%"
  viability at 72 h, 100 µM: 50
- input smiles: "Cc1ccc(S(=O)(=O)Oc2c(NC(=O)c3ccc(F)cc3)c(=O)n(C)c3ccccc23)cc1"
  endpoint unit: "%"
  viability at 72 h, 100 µM: 57
- input smiles: "Cn1c(=O)c(NC(=O)c2cc3ccccc3[nH]2)c(O)c2ccccc21"
  endpoint unit: "%"
  viability at 72 h, 100 µM: 107
- input smiles: "CCCC(=O)Nc1c(OS(=O)(=O)c2ccc(C)cc2)c2ccccc2n(C)c1=O"
  endpoint unit: "%"
  viability at 72 h, 100 µM: 55
- input smiles: "Cc1ccc(S(=O)(=O)Oc2c(NC(=O)CCCCCCCCCCOn3nnc4ccccc43)c(=O)n(C)c3ccccc23)cc1"
  endpoint unit: "%"
  viability at 72 h, 100 µM: 69
- input smiles: "Cn1c(=O)c(NC(=O)c2ccc(F)cc2)c(O)c2ccccc21"
  endpoint unit: "%"
  viability at 72 h, 100 µM: 74
- input smiles: "COc1cc(C(=O)Nc2c(O)c3ccccc3[nH]c2=O)cc(OC)c1OC"
  endpoint unit: "%"
  viability at 72 h, 100 µM: 76
- input smiles: "Cn1c(=O)c(NC(=O)c2ccc3c(c2)CCC(C)(C)O3)c(O)c2ccccc21"
  endpoint unit: "%"
  viability at 72 h, 100 µM: 98
- input smiles: "Cn1c(=O)c(NC(=O)c2ccc3c(c2)C=CC(C)(C)O3)c(O)c2ccccc21"
  endpoint unit: "%"
  viability at 72 h, 100 µM: 100
- input smiles: "COc1cc(C(=O)Nc2c(OS(=O)(=O)c3ccc(C)cc3)c3ccccc3[nH]c2=O)cc(OC)c1OC"
  endpoint unit: "%"
  viability at 72 h, 100 µM: 55
- input smiles: "COc1ccc(C(=O)Nc2cc3cc(Br)ccc3n(C)c2=O)cc1"
  endpoint unit: "%"
  viability at 72 h, 100 µM: 20
- input smiles: "COc1cc(C(=O)Nc2c(O)c3ccccc3n(C)c2=O)cc(OC)c1OC"
  endpoint unit: "%"
  viability at 72 h, 100 µM: 100
- input smiles: "Cc1ccc(S(=O)(=O)Oc2c(NC(=O)c3ccc4c(c3)CCC(C)(C)O4)c(=O)n(C)c3ccccc23)cc1"
  endpoint unit: "%"
  viability at 72 h, 100 µM: 100
- input smiles: "COc1ccc(C(=O)Nc2cc3cc(OC)ccc3n(C)c2=O)cc1"
  endpoint unit: "%"
  viability at 72 h, 100 µM: 22
- input smiles: "CCCC(=O)Nc1c(O)c2ccccc2n(C)c1=O"
  endpoint unit: "%"
  viability at 72 h, 100 µM: 97
- input smiles: "CCCCNc1cc2ccccc2n(C)c1=O"
  endpoint unit: "%"
  viability at 72 h, 100 µM: 10
- input smiles: "COc1ccc(C(=O)Nc2cc3ccccc3n(C)c2=O)cc1"
  endpoint unit: "%"
  viability at 72 h, 100 µM: 89
